Test: clinical
Conditions: human, in vivo, CL (clearance)
readout.type: clearance (mL/min)

INSERT INTO measurements (compound_smiles, unit_string, endpoint_result) VALUES
  ('CC(=O)c1c(C)c2cnc(Nc3ccc(N4CCNCC4)cn3)nc2n(C2CCCC2)c1=O', 'mL/min', 1130);

---

Test: clinical
Settings: human, in vivo, CLIPP,no food (clearance with concomitant coadministration of IPP under fasting conditions)
readout.type: clearance (mL/min)

INSERT INTO results (molecule, endpoint_result) VALUES
  ('CC(=O)c1c(C)c2cnc(Nc3ccc(N4CCNCC4)cn3)nc2n(C2CCCC2)c1=O [palbociclib, Palbociclib]', 1770);
